molecular target: T1, human IL-6 (human, UniProt P05231 30-212); test: SPR (Biacore T200), antibody from cell supernatant captured on Protein A, IL-6 flowed over, 37 C
T1 construct: also called interleukin-6
T1 sequence (P05231 30-212 limits assumed): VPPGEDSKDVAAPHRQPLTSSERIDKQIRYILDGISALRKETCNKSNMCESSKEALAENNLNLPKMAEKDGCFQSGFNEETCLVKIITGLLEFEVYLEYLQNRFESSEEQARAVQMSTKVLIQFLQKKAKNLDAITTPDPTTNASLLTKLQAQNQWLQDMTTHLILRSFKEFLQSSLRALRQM
Reported koff values for a set of binders

- binder: "anti-IL-6 antibody, heavy chain I51L, G66D / light chain WT (antibody, human IgG1, V domains shown, Derived as m2; Engineered human IgG1) VH: EVQLVESGGGLVQPGGSLRLSCAASGFTFSPFAMSWVRQAPGKGLEWVAKLSPGGSWTYYSDTVTDRFTFSLDTSKSTAYLQMNSLRAEDTAVYYCARQLWGYYALDIWGQGTLVTVSS VL: DIQLTQSPSSLSASVGDRVTITCSASISVSYMYWYQQKPGKAPKLLIYDMSNLASGVPSRFSGSGSGTDFTLTISSLQPEDFATYYCMQWSGYPYTFGQGTKVEIK"
  unit.text: "s⁻¹"
  koff: 0.000733
- binder: "anti-IL-6 antibody, heavy chain I51K, G66D / light chain WT (antibody, human IgG1, V domains shown, Derived as m2; Engineered human IgG1) VH: EVQLVESGGGLVQPGGSLRLSCAASGFTFSPFAMSWVRQAPGKGLEWVAKKSPGGSWTYYSDTVTDRFTFSLDTSKSTAYLQMNSLRAEDTAVYYCARQLWGYYALDIWGQGTLVTVSS VL: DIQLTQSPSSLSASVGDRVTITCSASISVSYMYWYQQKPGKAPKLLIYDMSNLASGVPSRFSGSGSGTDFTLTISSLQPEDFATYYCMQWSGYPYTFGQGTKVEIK"
  unit.text: "s⁻¹"
  koff: 0.000402
- binder: "anti-IL-6 antibody, heavy chain T65V, G66D / light chain WT (antibody, human IgG1, V domains shown, Derived as m2; Engineered human IgG1) VH: EVQLVESGGGLVQPGGSLRLSCAASGFTFSPFAMSWVRQAPGKGLEWVAKISPGGSWTYYSDTVVDRFTFSLDTSKSTAYLQMNSLRAEDTAVYYCARQLWGYYALDIWGQGTLVTVSS VL: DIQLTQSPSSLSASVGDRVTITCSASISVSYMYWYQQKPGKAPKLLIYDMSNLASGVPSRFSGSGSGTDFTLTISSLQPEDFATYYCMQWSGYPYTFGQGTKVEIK"
  unit.text: "s⁻¹"
  koff: 0.000504

Sourced from patent US20240368267A1
